These entries and their values trace back to paper PMC12005787.

# collection of pIC50 values tested on ΔSHP1 (Homo sapiens, UniProt P29350)
# Sequence (P29350 202-595, stated change not applied): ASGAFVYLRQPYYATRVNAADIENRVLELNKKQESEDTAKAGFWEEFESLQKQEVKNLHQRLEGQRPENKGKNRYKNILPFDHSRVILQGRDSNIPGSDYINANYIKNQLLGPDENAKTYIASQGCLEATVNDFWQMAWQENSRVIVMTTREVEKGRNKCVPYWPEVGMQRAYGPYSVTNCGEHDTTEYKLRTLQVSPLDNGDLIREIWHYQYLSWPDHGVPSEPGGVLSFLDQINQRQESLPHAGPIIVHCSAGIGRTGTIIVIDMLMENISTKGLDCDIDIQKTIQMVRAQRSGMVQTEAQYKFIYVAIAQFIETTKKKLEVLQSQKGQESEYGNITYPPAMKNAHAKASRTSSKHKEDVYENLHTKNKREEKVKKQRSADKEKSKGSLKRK
API: returns pIC50 as number; meaning -log10 of concentration in mol/L.

[
  {
    "CHEMICAL_STRUCTURE": "O=C1Nc2ccc(I)cc2/C1=C/c1cc(Br)c(O)c(Br)c1",
    "pIC50": 3.61
  }
]

Please turn your attention to the following entry.
Challenge: I am curious: what pIC50 value has been reported for Cc1cc2c(C(C)C)c(O)c(O)c(C=O)c2c(O)c1-c1c(C)cc2c(C(C)C)c(O)c(O)c(C=O)c2c1O ?
Response given: 3.71

###

- TESTED_TARGET: UniProt:P35236
- Sequence (P35236 1-360): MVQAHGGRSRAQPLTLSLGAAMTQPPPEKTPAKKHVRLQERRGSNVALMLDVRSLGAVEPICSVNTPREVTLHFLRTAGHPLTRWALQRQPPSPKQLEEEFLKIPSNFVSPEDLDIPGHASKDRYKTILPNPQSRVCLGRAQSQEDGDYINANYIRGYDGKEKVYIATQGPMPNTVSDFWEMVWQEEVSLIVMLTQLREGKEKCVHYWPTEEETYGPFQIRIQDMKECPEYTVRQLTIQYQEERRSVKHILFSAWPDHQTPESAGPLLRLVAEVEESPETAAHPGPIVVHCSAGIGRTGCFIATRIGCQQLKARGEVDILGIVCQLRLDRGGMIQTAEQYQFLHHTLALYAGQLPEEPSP
VALUE_TYPE: IC50 (µM)
Provide the reading as a plain figure in µM.

// solved cases for IC50 follow
[
  {
    "CHEMICAL_STRUCTURE": "Cc1cc2c(C(C)C)c(O)c(O)c(C=O)c2c(O)c1-c1c(C)cc2c(C(C)C)c(O)c(O)c(C=O)c2c1O",
    "OBSERVED_RESULT": 135
  },
  {
    "CHEMICAL_STRUCTURE": "O=C1Nc2ccc(I)cc2/C1=C/c1cc(Br)c(O)c(Br)c1",
    "OBSERVED_RESULT": 472
  },
  {
    "CHEMICAL_STRUCTURE": "CC1=NN(c2ccc(C)c(C)c2)C(=O)/C1=N\\Nc1cccc(-c2cccc(C(=O)O)c2)c1O",
    "OBSERVED_RESULT": 202
  }
]

Challenge: I am curious: what IC50 value has been reported for CC1(C)CCC(CN2CCN(c3ccc(C(=O)NS(=O)(=O)c4ccc(NCC5CCOCC5)c([N+](=O)[O-])c4)c(Oc4cnc5[nH]ccc5c4)c3)CC2)=C(c2ccc(Cl)cc2)C1 ?
Response given: 20
